Assayed Target: HLA-A*02:16
Procedure Summary: IEDB peptide-MHC binding, purified MHC/competitive/fluorescence; filed as Kd, often an IC50 or EC50 that approximates it; bounds were set here for any values at or beyond the usual limits of such assays
Measurement Setup: source organism: Encephalitozoon cuniculi GB-M1
Recorded Metric: Kd

Data request: For the sequence GVYGGLCLA , give its measured Kd value.
Data returned: ≤ 1 nM

----------
Assayed Target: HLA-A*69:01
Procedure Summary: IEDB peptide-MHC binding, purified MHC/direct/fluorescence; filed as Kd, often an IC50 or EC50 that approximates it; bounds were set here for any values at or beyond the usual limits of such assays
Measurement Setup: source organism: Vibrio cholerae
Recorded Metric: Kd

Data request: Read off the recorded Kd for GLRWHVRAF
Data returned: ≥ 20 µM

----------
Assayed Target: HLA-B*57:01
Procedure Summary: IEDB peptide-MHC binding, purified MHC/direct/fluorescence; filed as Kd, often an IC50 or EC50 that approximates it; bounds were set here for any values at or beyond the usual limits of such assays
Measurement Setup: source organism: Brucella abortus 2308
pKd: −log10 of the molar value.
Recorded Metric: pKd

Data request: Consider the sequence RVYKNYDPR and give its recorded pKd.
Data returned: ≤ 4.70

----------
Kd values, listed per item
Assayed Target: HLA-B*18:01
Procedure Summary: IEDB peptide-MHC binding, purified MHC/direct/fluorescence; filed as Kd, often an IC50 or EC50 that approximates it; bounds were set here for any values at or beyond the usual limits of such assays
Measurement Setup: source organism: Bacillus anthracis

Residue Sequence | Recorded Measurement
PTDYAKPQY | ≥ 20 µM

Continue with the next sequence.
Data request: Give Kd for the following sequence: TPRIANRLL
Data returned: ≥ 20 µM

----------
Assayed Target: HLA-A*02:01
Procedure Summary: IEDB peptide-MHC binding, purified MHC/competitive/fluorescence; filed as Kd, often an IC50 or EC50 that approximates it; bounds were set here for any values at or beyond the usual limits of such assays
Measurement Setup: source organism: Vibrio cholerae 2740-80
pKd: −log10 of the molar value.
Recorded Metric: pKd

Data request: Could you please provide reported pKd for LAVFPAMFW ? Thanks!
Data returned: ≤ 4.70

----------
Assayed Target: HLA-A*29:02
Procedure Summary: IEDB peptide-MHC binding, purified MHC/competitive/fluorescence; filed as Kd, often an IC50 or EC50 that approximates it; bounds were set here for any values at or beyond the usual limits of such assays
Measurement Setup: source organism: Shigella boydii CDC 3083-94
pKd: −log10 of the molar value.
Recorded Metric: pKd

Data request: Specify reported pKd for the sequence shown: MAMTGLPQA
Data returned: ≤ 4.70

----------
Assayed Target: HLA-B*18:01
Procedure Summary: IEDB peptide-MHC binding, purified MHC/competitive/fluorescence; filed as Kd, often an IC50 or EC50 that approximates it; bounds were set here for any values at or beyond the usual limits of such assays
Measurement Setup: source organism: Escherichia coli F11
pKd: −log10 of the molar value.
Recorded Metric: pKd

Data request: Return reported pKd. Input sequence: GSGDDTWLI
Data returned: ≤ 4.70

----------
Assayed Target: HLA-A*01:01
Procedure Summary: IEDB peptide-MHC binding, purified MHC/direct/fluorescence; filed as Kd, often an IC50 or EC50 that approximates it; bounds were set here for any values at or beyond the usual limits of such assays
Measurement Setup: source organism: Influenza A virus (A/egret/Hong Kong/757.3/2002(H5N1))
Recorded Metric: Kd

Data request: Supply recorded Kd for EEFTMVGRR here.
Data returned: ≥ 20 µM
